# target: recombinant human ERα (Homo sapiens)
# Construct: purchased PanVera Corporation (Madison, Wis.); host or cells: baculovirus-mediated expression system
# assayInfo: ERα binding assay: competition of [3H]E2 binding by competing estrogens
# studyConditions: calculated against E2 = 100
endpointName: RBAα % (relative binding affinity for ERα, of E2) (%)

{"compound": "COc1c(O)ccc2c1CCC1C2CCC2(C)C(O)CCC12 (stereo not shown) [4-MeO-E2, 4-Methoxyestradiol]", "measured": 2}
{"compound": "CC[C@H](c1ccc(O)cc1)[C@@H](CC)c1ccc(O)cc1 [Hexestrol, reference compound]", "measured": 31}
{"compound": "C[C@]12CC[C@@H]3c4cc([N+](=O)[O-])c(O)cc4CC[C@H]3[C@@H]1CCC2=O [2-NO2-E1, 2-Nitroestrone]", "measured": 1}
{"compound": "C[C@]12CC[C@@H]3c4cc(N)c(O)cc4CC[C@H]3[C@@H]1CCC2=O [2-NH2-E1, 2-Aminoestrone]", "measured": 3}
{"compound": "CC12CCC3c4cc(Br)c(O)cc4CCC3C1CCC2O (stereo not shown) [2-Br-E2, 2-Bromoestradiol]", "measured": 4}
{"compound": "CC12CCC3c4ccc(O)cc4C(=O)CC3C1CC(O)C2O (stereo not shown)", "measured": 25}
{"compound": "COc1cc2c(cc1O)CC[C@@H]1[C@@H]2CC[C@]2(C)[C@@H](O)CC[C@@H]12 [2-MeO-E2, 2-Methoxyestradiol]", "measured": 2}

* * *

# target: recombinant human ERα (Homo sapiens)
# Construct: purchased PanVera Corporation (Madison, Wis.); host or cells: baculovirus-mediated expression system
# assayInfo: ERα binding assay: competition of [3H]E2 binding by competing estrogens
# studyConditions: ratio of relative binding affinities ERα over ERβ

{"compound": "C[C@]12CC[C@@H]3c4ccc(O)cc4C[C@@H](CCCCCCO)[C@H]3[C@@H]1CC[C@@H]2O [E2-7α-(CH2)6OH, 7α-(6-Hydroxyhexanyl)-17β-estradiol]", "RBAα/RBAβ": 0.7}
{"compound": "CC12CCC3c4cc(O)c(O)cc4CCC3C1CCC2=O (stereo not drawn) [2-OH-E1, 2-Hydroxyestrone]", "RBAα/RBAβ": 10}
{"compound": "C[C@]12CCc3c(ccc4cc(O)ccc34)[C@@H]1CCC2=O", "RBAα/RBAβ": 0.3}
{"compound": "C[C@]12CC[C@@H]3c4ccc(O)cc4CC[C@H]3[C@@H]1[C@@H](O)[C@@H](O)[C@@H]2O [15α-OH-E3, 15α-Hydroxyestriol (Estetrol)]", "RBAα/RBAβ": 1.3}
{"compound": "Cc1c(O)ccc2c1CC[C@@H]1[C@@H]2CC[C@]2(C)[C@@H](O)CC[C@@H]12 [4-Methyl-E2, 4-Methylestradiol]", "RBAα/RBAβ": 0.3}
{"compound": "C/C=C(/C(=C/C)c1ccc(O)cc1)c1ccc(O)cc1 [Dienestrol, reference compound]", "RBAα/RBAβ": 0.7}

* * *

# target: recombinant human ERα (Homo sapiens, UniProt P03372)
# Construct: purchased PanVera Corporation (Madison, Wis.); host or cells: baculovirus-mediated expression system
# assayInfo: ERα binding assay: competition of [3H]E2 binding by competing estrogens
pIC50: −log10 of the molar value.
endpointName: pIC50

{"compound": "COc1c(O)ccc2c1CCC1C2CCC2(C)C(=O)CCC12 (stereo not shown) [4-MeO-E1, 4-Methoxyestrone]", "endpointName": "pIC50", "relation": "<", "measured": 6.00}
{"compound": "COc1c(O)ccc2c1CCC1C2CCC2(C)C(O)CCC12 (stereo not shown) [4-MeO-E2, 4-Methoxyestradiol]", "endpointName": "pIC50", "relation": "=", "measured": 6.15}
{"compound": "CC12CCC3c4ccc(O)cc4C(=O)CC3C1CCC2O (stereo not shown) [6-Keto-E2, 6-Ketoestradiol]", "endpointName": "pIC50", "relation": "=", "measured": 7.80}
{"compound": "C[C@]12CC[C@@H]3c4cc(O)c(O)cc4CC[C@H]3[C@@H]1CC[C@@H]2O [2-OH-E2, 2-Hydroxyestradiol]", "endpointName": "pIC50", "relation": "=", "measured": 7.30}
{"compound": "C[C@]12CC[C@@H]3c4ccc(O)cc4C(=O)C[C@H]3[C@@H]1CC[C@H]2O [6-Keto-E2-17α, 6-Ketoestradiol-17α]", "endpointName": "pIC50", "relation": "=", "measured": 6.25}
{"compound": "C[C@]12CCc3c(ccc4cc(O)ccc34)[C@@H]1CCC2=O", "endpointName": "pIC50", "relation": "=", "measured": 6.25}
{"compound": "C[C@]12CC[C@@H]3c4ccc(O)cc4CC[C@H]3[C@@H]1C[C@@H](O)C2=O [16α-OH-E1, 16α-Hydroxyestrone]", "endpointName": "pIC50", "relation": "=", "measured": 7.25}

* * *

RBAα % (relative binding affinity for ERα, of E2) by entry:
# target: recombinant human ERα (Homo sapiens)
# Construct: purchased PanVera Corporation (Madison, Wis.); host or cells: baculovirus-mediated expression system
# assayInfo: ERα binding assay: competition of [3H]E2 binding by competing estrogens
# studyConditions: calculated against E2 = 100
endpointName: RBAα % (relative binding affinity for ERα, of E2) (%)

{"compound": "C[C@]12CC[C@@H]3c4ccc(O)cc4[C@@H](O)C[C@H]3[C@@H]1CC[C@@H]2O [6α-OH-E2, 6α-Hydroxyestradiol]", "scaleUnit": "%", "measured": 6}
{"compound": "C[C@]12CC[C@@H]3c4ccc(O)cc4CC[C@H]3[C@@H]1[C@@H](O)[C@@H](O)[C@@H]2O [15α-OH-E3, 15α-Hydroxyestriol (Estetrol)]", "scaleUnit": "%", "measured": 4}
{"compound": "CC12CCC3c4cc(O)c(O)cc4CCC3C1CCC2=O (stereo not shown) [2-OH-E1, 2-Hydroxyestrone]", "scaleUnit": "%", "measured": 4}
{"compound": "CC12CCC3c4ccc(O)cc4C(=O)CC3C1CCC2O (stereo not shown) [6-Keto-E2, 6-Ketoestradiol]", "scaleUnit": "%", "measured": 71}
{"compound": "CC12CCC3c4ccc(O)cc4C(=O)CC3C1CCC2=O (stereo not shown) [6-Keto-E1, 6-Ketoestrone]", "scaleUnit": "%", "measured": 2}
{"compound": "C[C@]12CCc3c(ccc4cc(O)ccc34)[C@@H]1CCC2=O [D-Equilenin]", "scaleUnit": "%", "measured": 2}
{"compound": "C[C@]12CC[C@@H]3c4ccc(O)cc4CC[C@H]3[C@@H]1CC(=O)[C@@H]2O [16-Keto-E2, 16-Ketoestradiol]", "scaleUnit": "%", "measured": 1}

* * *

// IC50 lookup, one value per entry
# target: recombinant human ERα (Homo sapiens, UniProt P03372)
# Construct: purchased PanVera Corporation (Madison, Wis.); host or cells: baculovirus-mediated expression system
# assayInfo: ERα binding assay: competition of [3H]E2 binding by competing estrogens
# studyConditions: [3H]E2 10 nM, competitor up to 1000 nM; read-out: ERα IC50

{"molecule": "COc1cc2c(cc1O)CC[C@@H]1[C@@H]2CC[C@]2(C)[C@@H](O)CC[C@@H]12 [2-MeO-E2, 2-Methoxyestradiol]", "target": "recombinant human ERα (Homo sapiens, UniProt P03372)", "relation": "=", "IC50, nM": 501}
{"molecule": "COc1cc2c(cc1O)CC[C@@H]1[C@@H]2CC[C@]2(C)C(=O)CC[C@@H]12 [2-MeO-E1, 2-Methoxyestrone]", "target": "recombinant human ERα (Homo sapiens, UniProt P03372)", "relation": ">", "IC50, nM": 1000}

* * *

# target: recombinant human ERβ (Homo sapiens)
# Construct: purchased PanVera Corporation (Madison, Wis.); host or cells: baculovirus-mediated expression system
# Sequence (Q92731 whole entry): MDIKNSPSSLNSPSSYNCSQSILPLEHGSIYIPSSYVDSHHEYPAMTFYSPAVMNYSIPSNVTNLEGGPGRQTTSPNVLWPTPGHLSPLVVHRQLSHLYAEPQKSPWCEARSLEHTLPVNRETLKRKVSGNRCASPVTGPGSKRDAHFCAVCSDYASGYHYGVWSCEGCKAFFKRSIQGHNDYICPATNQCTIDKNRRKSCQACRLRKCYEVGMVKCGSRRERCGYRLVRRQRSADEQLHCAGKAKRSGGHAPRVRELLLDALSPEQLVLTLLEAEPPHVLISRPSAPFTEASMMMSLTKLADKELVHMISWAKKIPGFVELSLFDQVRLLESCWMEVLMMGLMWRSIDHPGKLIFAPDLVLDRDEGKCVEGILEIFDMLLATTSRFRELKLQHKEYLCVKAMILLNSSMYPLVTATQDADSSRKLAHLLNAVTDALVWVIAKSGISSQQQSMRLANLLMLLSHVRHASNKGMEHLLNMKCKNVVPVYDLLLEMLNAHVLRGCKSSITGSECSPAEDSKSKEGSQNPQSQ
# assayInfo: ERβ binding assay: competition of [3H]E2 binding by competing estrogens

{"compound": "C[C@]12CC[C@@H]3c4ccc(O)cc4C(=O)C[C@H]3[C@@H]1CC[C@H]2O [6-Keto-E2-17α, 6-Ketoestradiol-17α]", "scaleUnit": "nM", "IC50": 1120}
{"compound": "CC12CCC3c4ccc(O)cc4C(=O)CC3C1CCC2O (stereo not shown) [6-Keto-E2, 6-Ketoestradiol]", "scaleUnit": "nM", "IC50": 15.9}
{"compound": "C[C@]12CC[C@@H]3c4ccc(O)cc4CC[C@H]3[C@@H]1C[C@@H](O)C2=O [16α-OH-E1, 16α-Hydroxyestrone]", "scaleUnit": "nM", "IC50": 25.1}
{"compound": "C[C@]12CCc3c(ccc4cc(O)ccc34)[C@@H]1CCC2=O [D-Equilenin]", "scaleUnit": "nM", "IC50": 126}

* * *

# target: recombinant human ERα (Homo sapiens)
# Construct: purchased PanVera Corporation (Madison, Wis.); host or cells: baculovirus-mediated expression system
# Sequence (P03372 1-595): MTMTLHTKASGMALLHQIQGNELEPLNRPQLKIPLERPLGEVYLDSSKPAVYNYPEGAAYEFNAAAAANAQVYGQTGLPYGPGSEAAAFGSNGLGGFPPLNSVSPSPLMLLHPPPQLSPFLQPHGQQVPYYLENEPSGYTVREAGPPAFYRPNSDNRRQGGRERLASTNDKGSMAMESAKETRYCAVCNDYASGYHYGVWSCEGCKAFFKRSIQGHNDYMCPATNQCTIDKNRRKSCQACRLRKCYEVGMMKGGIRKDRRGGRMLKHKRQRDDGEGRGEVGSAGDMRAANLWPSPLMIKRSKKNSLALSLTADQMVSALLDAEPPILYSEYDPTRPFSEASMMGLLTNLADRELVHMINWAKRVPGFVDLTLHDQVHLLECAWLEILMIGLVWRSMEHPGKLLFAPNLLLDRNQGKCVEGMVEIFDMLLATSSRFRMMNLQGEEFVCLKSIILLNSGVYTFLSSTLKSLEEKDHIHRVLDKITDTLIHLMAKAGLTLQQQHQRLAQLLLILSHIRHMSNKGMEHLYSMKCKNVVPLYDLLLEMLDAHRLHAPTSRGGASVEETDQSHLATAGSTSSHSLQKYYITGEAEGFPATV
# assayInfo: ERα binding assay: competition of [3H]E2 binding by competing estrogens
# studyConditions: ratio of relative binding affinities ERα over ERβ
endpointName: RBAα/RBAβ

{"molecule": "C[C@]12CC[C@@H]3c4ccc(O)c(O)c4CC[C@H]3[C@@H]1CC[C@@H]2O [4-OH-E2, 4-Hydroxyestradiol]", "target": "recombinant human ERα (Homo sapiens)", "endpointName": "RBAα/RBAβ", "measured": 1.3}
{"molecule": "C[C@]12CC[C@@H]3c4ccc(O)c(Br)c4CC[C@H]3[C@@H]1CC[C@@H]2O [4-Br-E2, 4-Bromoestradiol]", "target": "recombinant human ERα (Homo sapiens)", "endpointName": "RBAα/RBAβ", "measured": 0.2}
{"molecule": "C#C[C@]1(O)CC[C@H]2[C@@H]3CCc4cc(O)ccc4[C@H]3[C@@H](OC)C[C@@]21C", "target": "recombinant human ERα (Homo sapiens)", "endpointName": "RBAα/RBAβ", "measured": 1.8}
{"molecule": "COc1c(O)ccc2c1CCC1C2CCC2(C)C(O)CCC12 (stereo not shown) [4-MeO-E2, 4-Methoxyestradiol]", "target": "recombinant human ERα (Homo sapiens)", "endpointName": "RBAα/RBAβ", "measured": 2}
{"molecule": "CC12CCC3c4ccc(O)cc4C(=O)CC3C1CC(O)C2O (stereo not shown)", "target": "recombinant human ERα (Homo sapiens)", "endpointName": "RBAα/RBAβ", "measured": 8.3}
{"molecule": "CC12CCC3c4ccc(O)cc4C(=O)CC3C1CCC2=O (stereo not shown) [6-Keto-E1, 6-Ketoestrone]", "target": "recombinant human ERα (Homo sapiens)", "endpointName": "RBAα/RBAβ", "measured": 2}
{"molecule": "C[C@]12CC[C@@H]3c4cc(O)c(O)cc4CC[C@H]3[C@@H]1CC[C@@H]2O [2-OH-E2, 2-Hydroxyestradiol]", "target": "recombinant human ERα (Homo sapiens)", "endpointName": "RBAα/RBAβ", "measured": 0.6}

Just for reference, patent US20080293683A1 is where these values come from.
